target: Y537N mutant ERα receptor (Homo sapiens, UniProt P03372, Y537N); construct: generated by CRISPR/Cas9 gene editing of ESR1 gene in MCF7 cells, clone #682; endogenous in cells; experiment: PRα inhibition (ERα functional antagonism) cell assay in MCF7-ESR1 Y537N 682 CRISPR cells; conditions: MCF7 Y537N 682 CRISPR cells (heterozygous mutant), 72 hours; read-out: Relative IC50, PRα inhibition (ERα functional antagonism)
Sequence (P03372 whole entry Y537N): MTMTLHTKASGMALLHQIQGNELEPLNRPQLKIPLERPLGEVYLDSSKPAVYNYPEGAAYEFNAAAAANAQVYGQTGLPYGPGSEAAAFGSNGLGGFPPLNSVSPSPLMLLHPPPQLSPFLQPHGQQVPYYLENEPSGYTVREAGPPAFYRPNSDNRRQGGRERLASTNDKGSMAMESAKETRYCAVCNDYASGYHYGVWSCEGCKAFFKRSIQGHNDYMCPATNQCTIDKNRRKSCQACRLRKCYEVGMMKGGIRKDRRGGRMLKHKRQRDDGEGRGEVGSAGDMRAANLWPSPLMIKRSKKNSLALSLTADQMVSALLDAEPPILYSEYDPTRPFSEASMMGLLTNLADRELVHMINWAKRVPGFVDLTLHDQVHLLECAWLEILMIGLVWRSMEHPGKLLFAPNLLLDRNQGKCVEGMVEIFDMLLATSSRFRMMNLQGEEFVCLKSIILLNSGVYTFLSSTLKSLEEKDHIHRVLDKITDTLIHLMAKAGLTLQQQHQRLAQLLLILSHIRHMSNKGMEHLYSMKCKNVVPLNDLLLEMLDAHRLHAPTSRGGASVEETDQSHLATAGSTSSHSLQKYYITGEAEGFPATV
Readings of IC50 for the listed compounds
Write down the numeric answer in µM and omit the unit.

[[record]]
smiles_structure = "O=C(O)[C@H]1O[C@@H](Oc2ccc3c4c(cnc3c2)-c2ccc(C(F)(F)F)cc2O[C@@H]4c2ccc(OCCN3CC(CF)C3)cc2)[C@H](O)[C@@H](O)[C@@H]1O"
assay_target = "Y537N mutant ERα receptor (Homo sapiens, UniProt P03372, Y537N)"
observed = 0.47


From here, focus on the item given below.
Asked: Input `O=S(=O)(O)Oc1ccc2c3c(cnc2c1)-c1ccc(C(F)(F)F)cc1O[C@@H]3c1ccc(OCCN2CC(CF)C2)cc1` , output reported IC50.
Given back: 0.33
